Attribution: ChEMBL document CHEMBL3988442

// reported Percent Effect per item
system: Wolbachia pipientis; assay: Anti-Wolbachia Cell-Based Screen; type: functional; set-up: scale not given: in the data most compounds retested in dose-response had high values; conditions: 5 µM
About 13,000 (27%) of roughly 48,000 compounds showed an effect of 50% or more. The list shows a part of the results.

{"Compound": "CC(=O)Nc1ccc(/C=C/c2ncc(C(=O)O)s2)cc1", "Percent Effect [%]": 35.4}
{"Compound": "CC(NC(=O)c1ccoc1)C(=O)N(C)Cc1ccc(O)cc1 (stereo unspecified)", "Percent Effect [%]": -3.093}
{"Compound": "CC1COCCN1C(=O)c1cccc(OCc2cscn2)c1 (stereo unspecified)", "Percent Effect [%]": -3.154}
{"Compound": "CC1(C)[C@H](Cc2cc(CN3CCOCC3)on2)C[C@@H]1NC(=O)C1CCC1", "Percent Effect [%]": 3.49}
{"Compound": "COc1cccc2c1OCC(C(=O)NCCn1nc(C)c(Cl)c1C)C2 (stereo unspecified)", "Percent Effect [%]": -38.77}
{"Compound": "COc1ccc(Oc2ncccc2NC(=O)N2CCOCC2C)cc1 (stereo unspecified)", "Percent Effect [%]": -2.613}

* * *

// reported Percent Effect per item
test system: Wolbachia pipientis; assay: Anti-Wolbachia Cell-Based Screen; assay type: functional; parameters: scale not given: in the data most compounds retested in dose-response had high values; details: 5 µM
In all, about 48,000 compounds went through this assay and about 13,000 (27%) showed an effect of 50% or more. Some of the results follow.

{"Compound": "Cc1cc(C)n(CCC(=O)N2CCCC(n3cncn3)C2)n1 (stereo unspecified)", "Percent Effect [%]": -3.067}
{"Compound": "Cc1cc(C(=O)N2CCCC(n3cncn3)C2)c(C)n1CC1CC1 (stereo unspecified)", "Percent Effect [%]": 127.1}
{"Compound": "Cn1c(=O)c2cc(C(=O)NCCc3ccccc3)ccc2n(C)c1=O", "Percent Effect [%]": 97.39}
{"Compound": "O=C(O)c1ccc(CCNC(=O)C2(O)Cc3ccccc3C2)cc1", "Percent Effect [%]": 0.991}
{"Compound": "Cn1c(=O)c2cc(C(=O)NCCOCC(F)(F)F)ccc2n(C)c1=O", "Percent Effect [%]": 109.9}
{"Compound": "Cn1c(=O)c2cc(C(=O)NCCOc3ccccc3)ccc2n(C)c1=O", "Percent Effect [%]": 103.9}
{"Compound": "Cc1ncsc1C(=O)N1CCCC(n2cncn2)C1 (stereo unspecified)", "Percent Effect [%]": 88.89}
{"Compound": "O=C(NCCOc1ccccc1)c1ccc2c(c1)C(=O)NC2=O", "Percent Effect [%]": -4.876}
{"Compound": "c1cc(-c2noc(CN3CCn4c(nnc4C4CC4)C3)n2)co1", "Percent Effect [%]": -9.374}
{"Compound": "O=C(O)CC(NC(=O)c1cc(Br)c[nH]1)c1ccccc1 (stereo unspecified)", "Percent Effect [%]": 7.291}
{"Compound": "N#CCCN(CC1CCOC1)Cn1ccc(-c2cccs2)n1 (stereo unspecified)", "Percent Effect [%]": -0.2132}

* * *

system: Wolbachia pipientis; test: Anti-Wolbachia Cell-Based Screen; type: functional; design: scale not given: in the data most compounds retested in dose-response had high values; conditions: 5 µM
Among all 48,000 compounds or so, about 13,000 (27%) showed an effect of 50% or more. This is one part of the list.
Readout Label: Percent Effect (%)

{"Compound": "O=C(Cn1c(=O)n(Cc2ccco2)c2ncccc21)NC1CCCCC1", "Readout Value": -5.913}
{"Compound": "CC(=O)N[C@@H]1CN(c2nc(CO)cs2)C[C@H]1c1ccc(C)o1", "Readout Value": 5.445}
{"Compound": "CCC[C@H]1CN(c2nc(CO)cs2)C[C@@H]1NC(=O)C1(COC)CC1", "Readout Value": 96.14}
{"Compound": "CC(C)(C)CNC1(Cc2cc(C(C)(C)O)on2)COC1", "Readout Value": -22.48}
{"Compound": "COCCN(Cc1ccco1)Cc1nc(-c2ccccc2C)no1", "Readout Value": -8.039}
{"Compound": "COc1ccccc1C(=O)Nc1ccc([C@@H](O)[C@H]2COCC(=O)N2)cc1", "Readout Value": -5.781}
{"Compound": "Cn1nc(C2CCN(CC(=O)NC3CC3)CC2)n(-c2ccccc2)c1=O", "Readout Value": 1.77}
{"Compound": "CCC[C@H]1CN(c2nc(CO)cs2)C[C@@H]1NC(=O)C1CCC1", "Readout Value": 94.3}
{"Compound": "CC(C1CC1)N(C(=O)CNc1ccc(C#N)cc1)C1CC1 (stereo not drawn)", "Readout Value": -11.75}
{"Compound": "Cc1nnc(NC(=O)N2CCN(Cc3ccc(F)cc3)C(=O)C2)s1", "Readout Value": -5.387}
{"Compound": "O=C(Cn1c(=O)n(Cc2ccco2)c2ncccc21)Nc1ccccn1", "Readout Value": -4.791}
{"Compound": "COCC1CN(C(=O)c2cccn2C)Cc2ncnn2C1 (stereo not drawn)", "Readout Value": -3.009}
{"Compound": "COC(=O)c1cccc(CN(C)Cc2ncnn2C)c1C#N", "Readout Value": -234}
{"Compound": "O=C(Cn1c(=O)n(Cc2ccco2)c2ncccc21)NC1CCCC1", "Readout Value": 120}
{"Compound": "CCN(CC)C(=O)Cn1c(=O)n(Cc2ccco2)c2ncccc21", "Readout Value": 92.26}
{"Compound": "COc1ccc(C(C)N2CCC(OC)CC2)cc1Cl (stereo not drawn)", "Readout Value": 17.11}
{"Compound": "CC(C)(C)NC(=O)Cn1c(=O)n(Cc2ccco2)c2ncccc21", "Readout Value": 95.67}
{"Compound": "CC(C)NC(=O)NC[C@@]1(COc2cnccn2)C[C@@H](O)[C@@H](O)C1.Cl", "Readout Value": -2.608}
{"Compound": "Cc1csc(C2(NCc3nnc(-c4ccco4)o3)CCCC2)n1", "Readout Value": -3.858}
{"Compound": "CCCN(Cc1cccnc1)C(=O)C1CCN(Cc2ccco2)CC1", "Readout Value": 2.103}
{"Compound": "O=C(N[C@H]1CN(c2nc(CO)cs2)C[C@@H]1C1CC1)C1CCCCC1", "Readout Value": 92.34}
{"Compound": "CC(C)CN1CCCn2nc(CNC(=O)CN3CCOC3=O)cc2C1", "Readout Value": 1.752}
{"Compound": "CCC[C@H]1CN(Cc2nccn2C)C[C@@H]1NC(=O)C1(COC)CCC1", "Readout Value": -15.87}

* * *

// reported Percent Effect per item
tested on: Wolbachia pipientis; assay: Anti-Wolbachia Cell-Based Screen; type: functional; design: scale not given: in the data most compounds retested in dose-response had high values; conditions: 5 µM
Among all 48,000 compounds or so, about 13,000 (27%) showed an effect of 50% or more. Some of the results follow.

{"Compound": "Cc1cnccc1CN1C[C@@H](O)[C@H](Oc2cccc(F)c2)C1", "Percent Effect": "-1.659%"}
{"Compound": "O=C(Nc1ccccc1)[C@H]1O[C@H](CCN2CCCCC2)CC[C@@H]1O", "Percent Effect": "-9.518%"}
{"Compound": "Cc1ccc2cc(CNCCCN3CCOCC3)c(=O)[nH]c2c1C", "Percent Effect": "110.9%"}
{"Compound": "CN(C)C(=O)[C@@H]1C[C@@H]2CCN(C3CCOCC3)C[C@H]2O1.O=C(O)C(F)(F)F", "Percent Effect": "104.8%"}
{"Compound": "CCN1CC(C(=O)NCCOc2ccc3c(c2)OCO3)CC1=O (configuration not stated)", "Percent Effect": "101.2%"}
{"Compound": "Cc1ccc(CN2CC[C@H]3[C@H]2CC(=O)N3c2ccsc2)o1.O=C(O)C(F)(F)F", "Percent Effect": "12.94%"}
{"Compound": "CN(C)C(=O)[C@@H]1C[C@@H]2CCN(C3CCOCC3)C[C@@H]2O1", "Percent Effect": "104.3%"}
{"Compound": "O=C(c1ccnnc1)N1C[C@@H]2CC[C@H](Oc3cccc(F)c3)[C@@H]2C1", "Percent Effect": "-13.73%"}
{"Compound": "COc1ccc(CN2C[C@@H](CN(C)C)[C@@H](CO)C2)cc1OC", "Percent Effect": "17.76%"}
{"Compound": "COc1cccc(NC(=O)N(CCO)Cc2ccsc2)c1", "Percent Effect": "1.126%"}
{"Compound": "CNC(=O)NC(=O)CCSc1ccccc1C", "Percent Effect": "-14.48%"}
{"Compound": "CCS(=O)(=O)N1C[C@@H](O)[C@H](Oc2cccc(F)c2)C1", "Percent Effect": "115.8%"}
{"Compound": "CCN(C)C(=O)c1ccc(N2CCC(Oc3cccc(F)c3)CC2)nc1", "Percent Effect": "-6.141%"}
{"Compound": "CCN(CC)CCn1cnc(-c2ccccc2)c1-c1cnn(CC)c1", "Percent Effect": "8.592%"}
{"Compound": "COC(=O)CCCn1ccnc1-c1ccc(OC)c(F)c1F", "Percent Effect": "-8.612%"}
{"Compound": "CN(C)C(=O)CO[C@H]1COCCN(C2CCOCC2)C1", "Percent Effect": "-5.811%"}
{"Compound": "NC(=O)CCN1C(=O)CC(Cc2ccc(F)cc2)C1=O (configuration not stated)", "Percent Effect": "3.459%"}
{"Compound": "Cc1nn(C)cc1-c1nn2c(C(F)(F)F)nnc2s1", "Percent Effect": "115.5%"}
{"Compound": "Cc1noc(C(C)Nc2ccc3oc(=O)[nH]c3c2)n1 (configuration not stated)", "Percent Effect": "-7.057%"}
{"Compound": "CCc1ccc(CN2CC[C@H]3[C@H]2CC(=O)N3Cc2cccc(C)n2)o1.O=C(O)C(F)(F)F.O=C(O)C(F)(F)F", "Percent Effect": "105.5%"}
{"Compound": "O=C(NC1CC1)[C@@H]1CCO[C@@H]2CCN(C3CCOCC3)C[C@@H]21.O=C(O)C(F)(F)F", "Percent Effect": "-4.22%"}
{"Compound": "CCn1cc(-c2nn3c(C(F)(F)F)nnc3s2)cn1", "Percent Effect": "71.37%"}
